// pKd lookup, one value per entry
Biological target: T1, PUF4 RNA-binding domain (Saccharomyces cerevisiae, UniProt P25339 537-888)
T1 sequence: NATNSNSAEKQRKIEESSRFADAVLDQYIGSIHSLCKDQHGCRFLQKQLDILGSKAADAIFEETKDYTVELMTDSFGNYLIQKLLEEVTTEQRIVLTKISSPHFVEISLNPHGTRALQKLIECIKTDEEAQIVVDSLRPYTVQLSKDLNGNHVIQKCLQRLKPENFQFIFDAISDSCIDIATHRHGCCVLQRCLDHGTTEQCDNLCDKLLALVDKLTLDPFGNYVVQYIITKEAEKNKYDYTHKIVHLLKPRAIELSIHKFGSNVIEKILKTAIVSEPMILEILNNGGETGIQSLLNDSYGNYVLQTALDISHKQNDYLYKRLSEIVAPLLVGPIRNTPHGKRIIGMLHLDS
Assay: Mg; RNA-MaP; 20 mM Na-HEPES pH 7.4, 30 mM KOAc, 0.75 mM MgCl2, 0.1% Tween-20, 5% glycerol, 0.1 mg/mL BSA, 2 mM DTT; 25 C; 0.0125-409.6 nM protein
Details: tags: N-His6-TEV cleaved; C-SNAP kept, Cy3B-labelled; label: tethered on chip by stalled RNA polymerase
// returns pKd (minus log10 of molar concentration), number only

Some solved entries appear below for comparison.
## Task Any idea what its pKd is? The binder is UCUCUUUGUAUAGUCUCUCUU (ssRNA) [Ic_S1_P4E.1_K4.1_C4.1_H4.1_A4.1_[T7G]_F4.1_[A9C]_T4.1]
## Result 7.63

## Task What does the data say about its pKd? Entry: Ic_S2_P3E.1_K3.1_C3.1_H3.1_A3.1_[T5C]_[A6C]_F3.1_T3.1 (ssRNA) RNA: UUUGAUUAAUAUGAUAUCGUUCUUUCUUGUACCUAUUCUUUCUCGAUAUCAUAUUAAUCUUU
## Result 7.98

## Task Recorded pKd of UCUCUUUUUAUAUAUAAUUCUCUU (ssRNA) [Id_ii_S1_P3E.3_K3.2_C3.2_[C-2T]_H3.2_A3.1_F3.1_T3.2_[T9A]_[A10T]] , please.
## Result 6.01

## Task // returns reported pKd for input Ie_S2_P4E.1_K4.1_C4.1_H4.1_A4.1_F4.1_[+8TC]_T4.1 (ssRNA) RNA: UUUGAUUAAUAUGAUAUCGUUCUUUCUUGUAUAUUUCAUUCUUUCUCGAUAUCAUAUUAAUCUUU
## Result 8.16

Kindly review the next binder as well.
## Task Query (binder): Ie_S2_P5E.1_K5.1_C5.1_H5.1_A5.1_F5.1_[+9CCCTT]_T5.1 (ssRNA) RNA: UUUGAUUAAUAUGAUAUCGUUCUUUCUUGUAUUAUUCCCUUAUUCUUUCUCGAUAUCAUAUUAAUCUUU ; field requested: pKd
## Result 7.89

FYI, the data here is from paper PMC9352680.
